molecular target: Muscarinic acetylcholine receptor M3 (Homo sapiens); test: Percent binding affinity at muscarinic acetylcholine receptor M3 from SK-N-SH human neuroblastoma cells in presence of [3H]NMS; assay type: cell-based
Affinity vs 50%: at or above is true, below is false.

{"Given Smiles": "CN(CC#CCN1CCCC1)C(=O)CCCNC(=O)CN", "Tested On": "Muscarinic acetylcholine receptor M3 (Homo sapiens)", "Category Label": "false"}
{"Given Smiles": "CN(CC#CCN1CCCC1)C(=O)c1cccc(Cl)c1", "Tested On": "Muscarinic acetylcholine receptor M3 (Homo sapiens)", "Category Label": "true"}
{"Given Smiles": "CN(CC#CCN1CCCC1)C(=O)CCCN", "Tested On": "Muscarinic acetylcholine receptor M3 (Homo sapiens)", "Category Label": "false"}
{"Given Smiles": "CC(=O)NCCCCCCC(=O)N(C)CC#CCN1CCCC1", "Tested On": "Muscarinic acetylcholine receptor M3 (Homo sapiens)", "Category Label": "false"}
{"Given Smiles": "CC(=O)NCCCCC(=O)N(C)CC#CCN1CCCC1", "Tested On": "Muscarinic acetylcholine receptor M3 (Homo sapiens)", "Category Label": "false"}
{"Given Smiles": "CN(CC#CCN1CCCC1)C(=O)CCCCCCN.O=C(O)C(F)(F)F.O=C(O)C(F)(F)F", "Tested On": "Muscarinic acetylcholine receptor M3 (Homo sapiens)", "Category Label": "true"}
{"Given Smiles": "CN(CC#CCN1CCCC1)C(=O)CCCCCNC(=O)CCN", "Tested On": "Muscarinic acetylcholine receptor M3 (Homo sapiens)", "Category Label": "true"}
{"Given Smiles": "CN(CC#CCN1CCCC1)C(=O)CCNC(=O)OC(C)(C)C", "Tested On": "Muscarinic acetylcholine receptor M3 (Homo sapiens)", "Category Label": "false"}
{"Given Smiles": "C[N+](C)(C)CC#CCN1CCCC1=O", "Tested On": "Muscarinic acetylcholine receptor M3 (Homo sapiens)", "Category Label": "true"}
{"Given Smiles": "CN(CC#CCN1CCCC1)C(=O)CCC(=O)O", "Tested On": "Muscarinic acetylcholine receptor M3 (Homo sapiens)", "Category Label": "false"}
{"Given Smiles": "CC(=O)NCCCCCC(=O)N(C)CC#CCN1CCCC1", "Tested On": "Muscarinic acetylcholine receptor M3 (Homo sapiens)", "Category Label": "false"}
{"Given Smiles": "CC(=O)N(C)CC#CCN1CCCC1", "Tested On": "Muscarinic acetylcholine receptor M3 (Homo sapiens)", "Category Label": "true"}
{"Given Smiles": "CN(CC#CCN1CCCC1)C(=O)c1ccccc1", "Tested On": "Muscarinic acetylcholine receptor M3 (Homo sapiens)", "Category Label": "false"}
{"Given Smiles": "CC(=O)NCCCCCCCC(=O)N(C)CC#CCN1CCCC1", "Tested On": "Muscarinic acetylcholine receptor M3 (Homo sapiens)", "Category Label": "true"}
{"Given Smiles": "CN(CC#CCN1CCCC1)C(=O)CCCCN.O=C(O)C(F)(F)F.O=C(O)C(F)(F)F", "Tested On": "Muscarinic acetylcholine receptor M3 (Homo sapiens)", "Category Label": "false"}
{"Given Smiles": "CN(CC#CCN1CCCC1)C(=O)CCCNC(=O)OC(C)(C)C", "Tested On": "Muscarinic acetylcholine receptor M3 (Homo sapiens)", "Category Label": "false"}
